Test system: 817829-284-R-J1-PDC complex spheroid viability;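 note: spheroids exposed to compounds for 7 days; 100% = DMSO vehicle-treated spheroids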
Experiment: Anticancer human tumor 817829-284-R-J1-PDC patient-derived colon adenocarcinoma cell line growth inhibition [POLQ]
Conditions: second compound 0.0316 µM; first compound 0.1 µM; hits give low values
# viability, T/C listing for each entry below

[[record]]
molecule = "O=C(Nc1ccc(O)c(NS(=O)(=O)c2ccc(F)cc2)c1)c1ccc(-c2ccccc2)cc1 + Cc1cccc(N(C)C(=O)C2C(O)CCN2c2nc(C)cc(C(F)(F)F)c2C#N)c1"
result = "106%"

[[record]]
molecule = "CCc1c2c(nc3ccc(O)cc13)-c1cc3c(c(=O)n1C2)COC(=O)[C@]3(O)CC + COC1C(OC(N)=O)C(O)C(Oc2ccc3c(O)c(NC(=O)c4ccc(O)c(CC=C(C)C)c4)c(=O)oc3c2C)OC1(C)C"
result = "8.89%"


Looking up COc1cccc2c1C(=O)c1c(O)c3c(c(O)c1C2=O)CC(O)(C(=O)CO)CC3OC1CC(N)C(O)C(C)O1 (stereo not drawn) + Nc1ccc(C#CCN(C(=O)Cc2ncc(C(F)(F)F)cc2C(F)(F)F)c2ccc(F)cc2)nn1 , I see its viability, T/C listed as 21.2%
